Assay: NCI Yeast Anticancer Drug Screen. Data for the bub3 strain (AID 167)
Details: S. cerevisiae bub3 mutant strain, at 50.0 µM, hits give high values
Compounds without any hit were thinned out: in the full panel of roughly 79,000, 15% have a hit.

molecule	growth inhibition (%)
COc1cc(O)c(Cc2ccccc2O)c(O)c1C(=O)CCc1ccccc1	-35.9
CCOC(=O)c1ccc(NC=O)cc1	1.95
COC(=O)CNC(=O)C(Cc1ccc(OCc2ccccc2)cc1)NC(=O)OC(C)(C)C (stereo not given)	-10.6
CC(=O)N1C(=O)NC(=O)C1(C)C	1.5
O=C(NCc1ccc2ccc3cccnc3c2n1)c1ccc[n+](Cc2ccccc2)c1	10.1
O=S1(=O)C(c2ccccc2Cl)=C(O)C(O)=C1c1ccccc1Cl	-2.1
CN(Cc1cccc(Cl)c1)C(=O)NC(C)(C)C	14.6
NC(=O)NC(=O)C1C2CC3OC(=O)C1C3C2 (stereo not given)	2.45
CCN(CC)C(=O)C(C)=O	1.2
CS/N=C(\c1ccccc1)N1CCOCC1	4.25
CCOC(=O)CC[Si](CC)(CC)CC	-15.3
O=C1c2cccc3cc([N+](=O)[O-])cc(c23)C(=O)N1C(Cc1ccccc1)c1ccccc1 (stereo not given)	10.6
CC(=O)OCC1(C)CCC(C)CO1 (stereo not given)	1.1
CC(C)NC(=O)c1ccccc1-[s+]1c2ccccc2c(=O)n1C(C)C (stereo not given)	-2.95
CCOC(=O)c1c[nH]c2cc(Cl)ccc2c1=O	15.3
CC(C)C1NC(=O)CC(c2ccccc2)N(N=O)C1c1ccccc1 (stereo not given)	-5.9
Oc1ccc(-c2nnc(-c3ccc(O)cc3)nn2)cc1	23.2
CCCCCCCCCCCCN(CC(O)C(O)C(OC1OC(CO)C(O)C(O)C1O)C(O)CO)C(=O)CCCCCCCCCCC (stereo not given)	4.3
CC(=O)NC(CCCCNC(=O)OC(C)(C)C)C(=O)O (stereo not given)	-2.85
CCCC(=O)Nc1ccc(N=Nc2ccccc2)cc1	46.1
O=C(O)CCCSc1ccc2ccccc2c1	4.55
CC1=CC[C@H]2C(C)=CC[C@@H](C(C)C)[C@@H]2C1	13.1
Clc1nnc(-c2ccccc2)s1	8.2
c1ccc(Oc2ccc(-c3ccccc3)cc2)cc1	-8.55
Cc1ccc(NC(=S)Nc2cccc(C(F)(F)F)c2)cc1C	-7.3
CN(C)CCn1cnc2sc3ccccc3c21	-6.35
CC1(c2cccc(N)c2)OCCO1	12.7
O=C(Nc1ccc(Cl)cc1Cl)C1C(=O)C(=O)N(c2ccc(Cl)cc2Cl)C1=O (stereo not given)	0.8
CC(CC(=N)N)NC(=O)C1CCC(N)=N1 (stereo not given)	-14.2
Cc1cc(C)c(CCC(=O)O)c(C)c1	-7.1
COc1cc(/C=C/c2ccnnc2)cc(OC)c1OC	15.3
CCOC(=O)C(Cl)(NC(=O)OCc1ccccc1)C(F)(F)F (stereo not given)	6.7
NC(=O)c1nnn(Cc2ccccc2)c1C(N)=O	8
O=C(O)CCSC1(SCCC(=O)O)CCCCC1	-9
O=S(c1ccc(O)cc1)c1ccc(O)cc1	-1.1
NS(=O)(=O)c1ccc(NC(=O)CC(=O)c2ccccc2)cc1	-25.6
CNC(=O)n1cncn1	-2.2
Cc1cc2nc(CC(=O)c3cccnc3)c(=O)[nH]c2cc1C	-8.05
CCOC(=O)CSC(=O)NCCCl	17.6
C/C(CCC1CCCCC1)=N/Nc1ccc([N+](=O)[O-])cc1[N+](=O)[O-]	6.95
Oc1ccccc1-c1cc(-c2ccccc2)nc(NCCCCNc2nc(-c3ccccc3)cc(-c3ccccc3O)n2)n1	-1.75
O=C(CCl)OCCCc1ccccc1	17
NCCNCCCCCCNC(=O)c1cccc2cc3ccccc3nc12	-14
CC12CCC(=O)C=C1CCC1C2C(=O)CC2(C)C1CCC2(O)C(=O)Cn1c(=O)[nH]cc(F)c1=O (stereo not given)	-0.85
Cc1ccc2ncccc2c1	3.9
N#C/C(=C1\N=C(c2ccccc2O)Oc2ccccc21)c1ccc([N+](=O)[O-])cc1	4.35
CC1(C)OC2OC(COC(=O)c3ccccc3)C(N3C(=O)c4ccccc4C3=O)C2O1 (stereo not given)	40.4
CC1OC(=O)c2cc3ccccc3cc2O1 (stereo not given)	-19.2
Cc1ccc(N=Nc2ccc(N)cc2C)c(S(N)(=O)=O)c1	61.8
COC(=O)CC1(O)C=CCCC1c1ccccc1 (stereo not given)	-7.5
